# systemName: T1, ZFP SBS#1212 (synthetic, UniProt P08047)
# T1 chain: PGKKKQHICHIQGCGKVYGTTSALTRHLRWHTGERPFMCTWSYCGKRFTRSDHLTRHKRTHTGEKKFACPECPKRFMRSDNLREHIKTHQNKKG
# assayComment: EMSA
# condition: tags: MBP fusion
quantityMeasured: Kd (nM)
Return type: number; implicit unit nM.

// Kd lookup, key: CAGGGGGTT (dsDNA) DNA 1: CAGGGGGTT DNA 2: AACCCCCTG
0.05

Values from patent US20030068675
